# assayedSystem: Voltage-dependent T-type calcium channel subunit alpha-1G (Homo sapiens, UniProt O43497)
# Sequence (O43497 whole entry): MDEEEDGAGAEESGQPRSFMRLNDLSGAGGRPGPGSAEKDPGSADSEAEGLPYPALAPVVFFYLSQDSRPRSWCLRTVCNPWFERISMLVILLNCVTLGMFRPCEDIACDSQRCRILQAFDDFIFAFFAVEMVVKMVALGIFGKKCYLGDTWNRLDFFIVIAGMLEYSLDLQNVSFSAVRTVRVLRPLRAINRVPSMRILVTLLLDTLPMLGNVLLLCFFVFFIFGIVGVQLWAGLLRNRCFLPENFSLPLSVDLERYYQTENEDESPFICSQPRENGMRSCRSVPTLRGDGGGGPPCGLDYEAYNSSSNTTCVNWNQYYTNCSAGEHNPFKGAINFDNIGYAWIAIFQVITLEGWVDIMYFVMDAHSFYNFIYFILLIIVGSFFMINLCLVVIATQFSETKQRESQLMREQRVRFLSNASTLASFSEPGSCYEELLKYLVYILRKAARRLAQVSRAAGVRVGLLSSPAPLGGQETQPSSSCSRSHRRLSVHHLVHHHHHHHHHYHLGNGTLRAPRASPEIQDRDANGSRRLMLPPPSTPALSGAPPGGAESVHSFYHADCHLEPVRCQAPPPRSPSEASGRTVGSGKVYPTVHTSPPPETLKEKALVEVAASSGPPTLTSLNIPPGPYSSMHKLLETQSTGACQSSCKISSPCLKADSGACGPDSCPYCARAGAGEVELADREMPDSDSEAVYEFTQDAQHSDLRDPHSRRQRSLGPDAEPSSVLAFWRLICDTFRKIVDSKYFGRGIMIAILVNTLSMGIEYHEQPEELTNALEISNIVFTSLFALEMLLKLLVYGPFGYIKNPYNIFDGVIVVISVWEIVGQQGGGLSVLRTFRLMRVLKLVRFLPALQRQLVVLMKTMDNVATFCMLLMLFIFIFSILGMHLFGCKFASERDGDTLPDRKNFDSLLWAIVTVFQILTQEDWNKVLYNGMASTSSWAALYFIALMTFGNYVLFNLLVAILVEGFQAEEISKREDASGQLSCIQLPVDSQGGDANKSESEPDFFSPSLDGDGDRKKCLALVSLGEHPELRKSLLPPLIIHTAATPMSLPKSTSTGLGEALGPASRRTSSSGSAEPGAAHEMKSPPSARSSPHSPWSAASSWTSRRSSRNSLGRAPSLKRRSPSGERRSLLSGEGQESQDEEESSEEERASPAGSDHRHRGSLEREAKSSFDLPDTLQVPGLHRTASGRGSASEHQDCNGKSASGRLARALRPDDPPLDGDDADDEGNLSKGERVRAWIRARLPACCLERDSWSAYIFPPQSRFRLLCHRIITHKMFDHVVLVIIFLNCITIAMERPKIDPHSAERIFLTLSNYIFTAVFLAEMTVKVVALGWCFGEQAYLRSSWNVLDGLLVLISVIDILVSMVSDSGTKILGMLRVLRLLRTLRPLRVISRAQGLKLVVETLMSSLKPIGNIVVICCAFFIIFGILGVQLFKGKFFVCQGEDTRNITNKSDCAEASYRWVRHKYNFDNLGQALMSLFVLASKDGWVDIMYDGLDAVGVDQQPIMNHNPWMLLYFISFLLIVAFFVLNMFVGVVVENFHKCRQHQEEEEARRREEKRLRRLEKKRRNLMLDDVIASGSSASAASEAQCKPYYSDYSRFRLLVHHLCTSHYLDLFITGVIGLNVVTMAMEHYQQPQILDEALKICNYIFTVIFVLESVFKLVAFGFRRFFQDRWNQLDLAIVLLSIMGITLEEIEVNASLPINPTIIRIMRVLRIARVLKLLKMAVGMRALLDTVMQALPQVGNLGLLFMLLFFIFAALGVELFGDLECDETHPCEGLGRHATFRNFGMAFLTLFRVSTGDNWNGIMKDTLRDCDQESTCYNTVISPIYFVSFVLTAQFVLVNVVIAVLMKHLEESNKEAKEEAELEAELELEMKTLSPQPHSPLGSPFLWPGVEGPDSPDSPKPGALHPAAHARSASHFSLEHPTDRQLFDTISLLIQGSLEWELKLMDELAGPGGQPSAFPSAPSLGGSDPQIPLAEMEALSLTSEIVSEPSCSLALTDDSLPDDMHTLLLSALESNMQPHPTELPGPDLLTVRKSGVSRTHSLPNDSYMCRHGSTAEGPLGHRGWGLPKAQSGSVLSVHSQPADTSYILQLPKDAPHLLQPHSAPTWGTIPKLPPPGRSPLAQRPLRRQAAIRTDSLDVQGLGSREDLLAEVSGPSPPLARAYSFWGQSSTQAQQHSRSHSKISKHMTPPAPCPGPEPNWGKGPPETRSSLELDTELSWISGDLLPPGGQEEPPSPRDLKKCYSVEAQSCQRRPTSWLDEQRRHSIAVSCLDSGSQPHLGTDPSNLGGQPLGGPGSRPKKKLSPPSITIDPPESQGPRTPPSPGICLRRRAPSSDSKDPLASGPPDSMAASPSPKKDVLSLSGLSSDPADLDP
# testName: Inhibition of T type calcium channel subunit alpha-1G expressed in HEK293 cells assessed as effect on T-type calcium currents by patch clamp method
# reported IC50; entries follow

molSmiles: O=C(CCCCN1CCN(Cc2ccc(Cl)cc2)CC1)N1CCN(c2ccccc2F)CC1
valueUnit: µM
IC50: 1.81
--
molSmiles: O=C(CCCCN1CCN(Cc2ccc(Cl)c(Cl)c2)CC1)N1CCN(c2ccccc2)CC1
valueUnit: µM
IC50: 2.91
--
molSmiles: O=C(CCCN1CCN(Cc2c(F)cccc2Cl)CC1)Nc1ccc(Cl)cc1
valueUnit: µM
IC50: 3.27
--
molSmiles: O=C(CCCN1CCN(c2ccccc2Cl)CC1)Nc1ccc(Cl)cc1
valueUnit: µM
IC50: 6.01
--
molSmiles: O=C(CCCN1CCN(c2ccccc2)CC1)Nc1ccc(Cl)cc1Cl
valueUnit: µM
IC50: 4.21
